# measured on: Transient receptor potential cation channel subfamily V member 1 (Rattus norvegicus, UniProt O35433)
# Sequence (O35433 whole entry): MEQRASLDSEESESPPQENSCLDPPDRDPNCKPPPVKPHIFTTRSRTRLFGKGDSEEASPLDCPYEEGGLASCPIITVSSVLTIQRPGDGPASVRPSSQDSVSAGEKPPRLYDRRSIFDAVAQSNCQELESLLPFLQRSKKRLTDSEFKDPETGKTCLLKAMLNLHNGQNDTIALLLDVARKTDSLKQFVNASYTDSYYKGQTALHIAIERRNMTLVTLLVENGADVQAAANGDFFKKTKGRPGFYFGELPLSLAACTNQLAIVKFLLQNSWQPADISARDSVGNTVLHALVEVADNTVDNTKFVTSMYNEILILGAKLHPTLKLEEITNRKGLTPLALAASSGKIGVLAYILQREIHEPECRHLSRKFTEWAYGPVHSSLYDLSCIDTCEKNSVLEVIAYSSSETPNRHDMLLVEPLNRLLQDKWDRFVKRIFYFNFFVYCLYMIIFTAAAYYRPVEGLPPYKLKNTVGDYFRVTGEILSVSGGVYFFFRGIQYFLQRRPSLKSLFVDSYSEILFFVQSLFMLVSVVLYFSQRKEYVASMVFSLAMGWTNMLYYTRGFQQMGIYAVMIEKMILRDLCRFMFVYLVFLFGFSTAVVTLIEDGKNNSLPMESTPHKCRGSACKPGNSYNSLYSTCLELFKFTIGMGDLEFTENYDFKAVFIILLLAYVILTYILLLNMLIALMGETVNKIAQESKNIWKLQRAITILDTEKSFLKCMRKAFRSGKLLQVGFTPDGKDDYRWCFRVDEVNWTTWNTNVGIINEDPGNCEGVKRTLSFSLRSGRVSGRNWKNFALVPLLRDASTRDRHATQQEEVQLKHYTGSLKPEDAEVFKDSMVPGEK
# method summary: Antagonist activity for rat TRPV1 expressed in CHO cells
# Format: functional, cell-based
pKi: −log10 of the molar value.
observation type: pKi

INSERT INTO assay_data (chemical_structure, reading) VALUES
  ('CC(C)(C)c1ccc(C/N=C(\S)Nc2ccc(NS(C)(=O)=O)cc2)cc1', 5.17),
  ('CC(C)(C)c1ccc(C/N=C(\S)NCc2ccc(NS(C)(=O)=O)c(Cl)c2)cc1', 6.40),
  ('CC(C)(C)c1ccc(C/N=C(\S)NCc2ccc(NS(C)(=O)=O)c([N+](=O)[O-])c2)cc1', 6.21),
  ('CC(C)(C)c1ccc(C/N=C(\S)NCc2ccc(NS(C)(=O)=O)cc2C(F)(F)F)cc1', 6.92);

A = CC(C)(C)c1ccc(C/N=C(\S)NCc2ccc(NS(C)(=O)=O)cc2F)cc1
B = CC(C)(C)c1ccc(C/N=C(\S)NCc2ccc(NS(C)(=O)=O)cc2Cl)cc1
C = CC(C)(C)c1ccc(C/N=C(\S)NCCc2ccc(NS(C)(=O)=O)cc2)cc1
D = CC(C)Oc1cc(C/N=C(\S)NCc2ccc(C(C)(C)C)cc2)ccc1NS(C)(=O)=O
## Task List by increasing pKi. Please, when replying, give the labels in the order that was requested.
## Result D, C, B, A
